Data provenance is ChEMBL document CHEMBL5052835.

Reported pIC50 is given for each of the following compounds.
Target: Chloride anion exchanger (Mus musculus)
Sequence (Q9WVC8 whole entry): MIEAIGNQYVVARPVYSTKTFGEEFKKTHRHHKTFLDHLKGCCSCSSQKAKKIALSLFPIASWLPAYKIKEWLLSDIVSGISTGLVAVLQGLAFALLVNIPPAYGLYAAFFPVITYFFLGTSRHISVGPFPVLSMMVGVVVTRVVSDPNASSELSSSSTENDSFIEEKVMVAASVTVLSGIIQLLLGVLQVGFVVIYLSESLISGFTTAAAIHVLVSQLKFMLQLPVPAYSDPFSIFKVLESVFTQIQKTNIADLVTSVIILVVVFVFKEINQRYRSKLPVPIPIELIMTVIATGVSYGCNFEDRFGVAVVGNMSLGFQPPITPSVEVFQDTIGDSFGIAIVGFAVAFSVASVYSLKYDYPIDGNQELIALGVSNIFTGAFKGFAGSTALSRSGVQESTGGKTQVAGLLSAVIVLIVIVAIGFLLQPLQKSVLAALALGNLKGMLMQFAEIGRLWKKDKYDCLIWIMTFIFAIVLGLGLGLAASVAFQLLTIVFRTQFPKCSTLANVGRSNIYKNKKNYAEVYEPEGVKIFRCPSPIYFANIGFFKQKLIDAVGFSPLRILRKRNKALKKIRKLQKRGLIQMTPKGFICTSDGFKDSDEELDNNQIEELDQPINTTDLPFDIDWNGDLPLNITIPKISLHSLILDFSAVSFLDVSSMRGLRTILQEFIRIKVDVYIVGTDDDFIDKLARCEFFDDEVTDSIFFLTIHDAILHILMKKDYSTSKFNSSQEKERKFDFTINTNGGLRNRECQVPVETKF
Assay: Inhibition of mouse Slc26a3 transfected in rat FRT cells preincubated with forskolin, 8-Br-cGMP and PMA and measured by fluorescence assay
Type: cell-based
Conditions: read-out: IC50
pIC50 is a log-scale quantity: -log10 of the concentration expressed in molar.

- CCOc1ccc(-n2ccnc2SCC(=O)Nc2ccc(Cl)cc2)cc1: 5.77
- Cc1cccc(-n2ccnc2SCC(=O)Nc2ccc(Cl)cc2)c1: 5.21
- COc1cccc(-n2ccnc2SCC(=O)Nc2ccc(C)cc2)c1: 5.15
- Cc1c(CC(=O)O)c(=O)oc2c(C)c(OCc3cccc(F)c3)ccc12: 6.08
- Cc1ccc(NC(=O)CSc2nccn2-c2ccc(Cl)cc2)cc1: 5.80
- O=C(CSc1nccn1-c1cccc(Cl)c1)Nc1ccc(Cl)c(Cl)c1: 5.54

Noted for O=C(CSc1nccn1-c1ccc(Cl)cc1)Nc1ccc([N+](=O)[O-])cc1 : its pIC50 reads 5.13

Noted for Cc1cccc(-n2ccnc2SCC(=O)Nc2ccc(Br)cc2)c1 : its pIC50 reads 5.19

Noted for CCCCCOc1ccc2c(C)c(CC(=O)O)c(=O)oc2c1C : its pIC50 reads 5.92

Noted for CCc1ccc(NC(=O)CSc2nccn2-c2ccc(Cl)cc2)cc1 : its pIC50 reads 5.24

Noted for Cc1ccc(NC(=O)CSc2nccn2-c2ccccc2)cc1Cl : its pIC50 reads 5.82

###

molecular target: Chloride anion exchanger (Mus musculus, UniProt Q9WVC8); assay: Inhibition of mouse Slc26a3 transfected in rat FRT cells preincubated with forskolin, 8-Br-cGMP and PMA and measured by fluorescence assay; assay type: cell-based; conditions: read-out: IC50
Reported IC50 is given for each of the following compounds.
Field format: number, assumed nM, no unit text.

Noted for O=C(CSc1nccn1-c1ccc(Cl)cc1)Nc1ccc(Cl)cc1 : its IC50 reads 1700

Noted for Cc1c(CC(=O)O)c(=O)oc2c(C)c(OCc3ccc(C(C)(C)C)cc3)ccc12 : its IC50 reads 4600

Noted for Cc1c(CC(=O)O)c(=O)oc2c(C)c(OCc3ccccc3F)ccc12 : its IC50 reads 510

Noted for Cc1cc(C)cc(-n2ccnc2SCC(=O)Nc2ccc(Cl)cc2)c1 : its IC50 reads 4600

Noted for O=C(CSc1nccn1-c1ccc(F)cc1)Nc1ccc(Cl)c(Cl)c1 : its IC50 reads 2600
